So I've got a bunch of binders here, and I need their T ½ values.
Target: T1, cynomolgus monkey BCMA (cynomolgus monkey, UniProt A0A2K5UD97 1-53)
T1 construct: Soluble analyte in SPR; construct not described; also called cyBCMA; Cyno BCMA
T1 sequence (A0A2K5UD97 entry or part of it): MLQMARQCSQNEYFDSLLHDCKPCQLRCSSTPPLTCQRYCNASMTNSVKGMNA
Experiment: SPR, IgG immobilised, 37 C
Procedure: All experiments were performed on a Bio-Rad Proteon XPR36 surface Plasmon resonance biosensor (Bio-Rad, Hercules, Calif.). […] The analysis temperature for the immobilization was 25° C. and the running buffer was HBS-T+(10 mM HEPES, 150 mM NaCl, 0.05% Tween-20, pH 7.4). […] The analysis temperature for the BCMA binding analysis was 37° C. or 25° C. in a running buffer of HBS-T+, supplemented with 1 mg/mL BSA. […] Immediately after the 50 nM BCMA injection, dissociation was monitored for 2 hours. […]
Numbers only, in min.

Previously resolved entries follow.
binder | quantitative_result
L3.PY/H3.TAQ (antibody, V domains shown, IgG) VH: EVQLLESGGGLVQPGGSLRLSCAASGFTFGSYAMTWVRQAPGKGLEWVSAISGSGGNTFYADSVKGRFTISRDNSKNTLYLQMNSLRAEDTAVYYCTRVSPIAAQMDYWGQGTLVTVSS VL: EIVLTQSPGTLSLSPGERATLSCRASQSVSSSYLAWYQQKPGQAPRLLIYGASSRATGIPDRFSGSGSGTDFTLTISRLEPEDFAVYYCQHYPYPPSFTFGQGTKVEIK | 2.64
L3.PY/H3.AE (antibody, V domains shown, IgG) VH: EVQLLESGGGLVQPGGSLRLSCAASGFTFGSYAMTWVRQAPGKGLEWVSAISGSGGNTFYADSVKGRFTISRDNSKNTLYLQMNSLRAEDTAVYYCARVSPIAAEMDYWGQGTLVTVSS VL: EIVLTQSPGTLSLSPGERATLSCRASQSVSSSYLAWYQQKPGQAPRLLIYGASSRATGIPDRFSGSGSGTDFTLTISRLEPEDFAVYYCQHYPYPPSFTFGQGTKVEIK | 2.29
L3.PY/L1.AH/H2.QR (antibody, V domains shown, IgG) VH: EVQLLESGGGLVQPGGSLRLSCAASGFTFGSYAMTWVRQAPGKGLEWVSAISGSGGNTFYADQRKGRFTISRDNSKNTLYLQMNSLRAEDTAVYYCARVSPIASGMDYWGQGTLVTVSS VL: EIVLTQSPGTLSLSPGERATLSCRASQSVSAHYLAWYQQKPGQAPRLLIYGASSRATGIPDRFSGSGSGTDFTLTISRLEPEDFAVYYCQHYPYPPSFTFGQGTKVEIK | 2.35
L3.PY/L1.AH/P6E01 (antibody, V domains shown, IgG) VH: EVQLLESGGGLVQPGGSLRLSCAASGFTFGSYAMTWVRQAPGKGLEWVSAISGSGGNTFYADSVKGRFTISRDNSKNTLYLQMNSLRAEDTAVYYCARVSPIASGMDYWGQGTLVTVSS VL: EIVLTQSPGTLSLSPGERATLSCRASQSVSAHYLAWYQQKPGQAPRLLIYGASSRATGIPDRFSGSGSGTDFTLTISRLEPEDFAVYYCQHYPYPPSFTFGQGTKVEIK | 2.02
L3.PY/H3.AQ (antibody, V domains shown, IgG) VH: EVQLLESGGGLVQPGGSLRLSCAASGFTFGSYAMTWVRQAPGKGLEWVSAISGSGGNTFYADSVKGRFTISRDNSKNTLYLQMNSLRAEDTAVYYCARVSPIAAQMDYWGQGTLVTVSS VL: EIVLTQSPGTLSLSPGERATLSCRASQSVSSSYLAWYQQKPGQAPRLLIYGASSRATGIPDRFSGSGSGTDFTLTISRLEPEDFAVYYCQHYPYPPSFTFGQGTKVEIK | 2.14
L3.PY/L1.PS/H3.YA (antibody, V domains shown, IgG) VH: EVQLLESGGGLVQPGGSLRLSCAASGFTFGSYAMTWVRQAPGKGLEWVSAISGSGGNTFYADSVKGRFTISRDNSKNTLYLQMNSLRAEDTAVYYCARVSPIYAGMDYWGQGTLVTVSS VL: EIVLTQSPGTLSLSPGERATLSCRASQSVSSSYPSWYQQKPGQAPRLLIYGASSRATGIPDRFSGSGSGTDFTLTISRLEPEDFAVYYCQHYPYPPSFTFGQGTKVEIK | 1.16
L3.PY/L1.PH/P6E01 (antibody, V domains shown, IgG) VH: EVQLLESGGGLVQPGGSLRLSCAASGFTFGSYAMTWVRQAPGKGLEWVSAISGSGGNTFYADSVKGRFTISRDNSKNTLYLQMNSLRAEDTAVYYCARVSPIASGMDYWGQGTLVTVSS VL: EIVLTQSPGTLSLSPGERATLSCRASQSVSPHYLAWYQQKPGQAPRLLIYGASSRATGIPDRFSGSGSGTDFTLTISRLEPEDFAVYYCQHYPYPPSFTFGQGTKVEIK | 1.46
L3.PY/H2.QL (antibody, V domains shown, IgG) VH: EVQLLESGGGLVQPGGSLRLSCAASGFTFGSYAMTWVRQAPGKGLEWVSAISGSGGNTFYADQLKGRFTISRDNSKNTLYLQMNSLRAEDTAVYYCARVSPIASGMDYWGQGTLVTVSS VL: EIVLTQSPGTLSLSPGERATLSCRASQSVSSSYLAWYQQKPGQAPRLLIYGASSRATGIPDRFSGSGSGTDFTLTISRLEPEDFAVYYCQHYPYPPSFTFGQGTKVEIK | 0.91

Next up:
State the recorded T ½ for this entry: L3.PY/L1.PS/H3.AQ (antibody, V domains shown, IgG) VH: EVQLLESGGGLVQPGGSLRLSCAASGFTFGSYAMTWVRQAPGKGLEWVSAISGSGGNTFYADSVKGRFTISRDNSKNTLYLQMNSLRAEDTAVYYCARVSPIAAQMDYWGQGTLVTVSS VL: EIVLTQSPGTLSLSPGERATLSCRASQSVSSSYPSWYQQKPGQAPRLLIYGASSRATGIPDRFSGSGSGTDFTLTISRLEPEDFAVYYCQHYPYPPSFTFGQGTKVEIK 2.67

All values here come from patent US20160297884A1.
